system: MCF10A; assay: 5+ nucleoli phenotype percent effect (relative to siNT 0% and siKIF11 100%); higher = more cells with five or more nucleoli; conditions: 20 nM; 72 h
Each entry below carries its recorded 5+ nucleoli phenotype percent effect.
property-label: 5+ nucleoli phenotype percent effect

sequence-text	result
GCUAGUCCUGACUCAGCCAGU [hsa-miR-554]	10.2%
AAGCUUUUUGCUCGAAUUAUGU [hsa-miR-208b-5p]	-1.23%
UCUCUGAGUACCAUAUGCCUUGU [hsa-miR-3921]	-6.05%
UGUUCAUGUAGAUGUUUAAGC [hsa-miR-1206]	42.5%
UGGGGAGCGGCCCCCGGGUGGG [hsa-miR-1343-5p]	48.5%
UGUCUUCUCUCCUCCCAAACAG [hsa-miR-6740-3p]	-27.6%
GUAUACACCUGAUAUGUGUAUG [hsa-miR-4789-5p]	17.3%
CCAAAACUGCAGUUACUUUUGC [hsa-miR-548o-3p]	27.5%
CAUUACAGCACAGCCAUUCU [hsa-miR-6504-3p]	-25.6%
CUUUGAGCACAUGAGCAGACGGA [hsa-miR-8055]	-14.2%
AAAACGGUGAGAUUUUGUUUU [hsa-miR-553]	65.7%
UCCAUGUUUCCUUCCCCCUUCU [hsa-miR-4716-5p]	-43.5%
UGGUGCGGAGAGGGCCCACAGUG [hsa-miR-675-5p]	-14%
CACCAUGGACGGUUUACC [hsa-miR-7153-3p]	-48.4%
UACUCAAAAAGCUGUCAGUCA [hsa-miR-888-5p]	11.8%
GUGCCAGCUGCAGUGGGGGAG [hsa-miR-1202]	44.3%
UCAGGGUUGGUAGGGGUUGCU [hsa-miR-6823-5p]	-11.9%
UGGCAGUUACUUUUGCACCAG [hsa-miR-548au-3p]	-17.4%
GAGGGCGGGUGGAGGAGGA [hsa-miR-3141]	-29.5%
AGGGAAAAAAAAAAGGAUUUGUC [hsa-miR-4668-5p]	61.6%
AAUGUGGAAGUGGUCUGAGGCAU [hsa-miR-4657]	6.84%
GACAAUUGUUGAUCUUGGGCCU [hsa-miR-7849-3p]	-19.1%
UUCUUUGUUUUUAAUUCACAG [hsa-miR-6844]	8.6%
UCCCUGAGCAAAGCCAC [hsa-miR-4319]	9.87%
UGAAGGUCUACUGUGUGCCAGG [hsa-miR-493-3p]	-34.3%
CACCUUUGUGUCCCCAUCCUGCA [hsa-miR-6782-3p]	49.2%
UGACUAACUCCCACUCUACAG [hsa-miR-6831-3p]	16.8%
UGGGAGGGCGUGGAUGAUGGUG [hsa-miR-6785-5p]	15%
CACACACACACACACACGUAU [hsa-miR-8485]	-36.9%
UGAUGAUACAGGUGGAGGUAG [hsa-miR-3682-3p]	-7.38%
CGGGGGCGGGGCCGAAGCGCG [hsa-miR-1237-5p]	45.4%
AUAUACAGGGGGAGACUCUUAU [hsa-miR-1185-1-3p]	-12.6%
UUUUGCAUGACCCUGGGAGUAGG [hsa-miR-3680-3p]	-18.3%
UUGAGAAUGAUGAAUCAUUAGG [hsa-miR-580]	25.6%
GGUGGGGGCUGUUGUUU [hsa-miR-4447]	-20.8%
GGGAGUCUACAGCAGGG [hsa-miR-4294]	-26.3%
AGUUAGGAUUAGGUCGUGGAA [hsa-miR-1258]	-19.1%
CAGGGCCAGGCACAGAGUAAG [hsa-miR-6895-5p]	0.712%

###

system: MCF10A; test: 5+ nucleoli phenotype percent effect (relative to siNT 0% and siKIF11 100%); higher = more cells with five or more nucleoli; conditions: 20 nM; 72 h
Each entry below carries its recorded 5+ nucleoli phenotype percent effect.

sequence-text	5+ nucleoli phenotype percent effect (%)
UGUGACUUUAAGGGAAAUGGCG [hsa-miR-3164]	22
UGAUCAGGCAAAAUUGCAGACU [hsa-miR-4772-5p]	47.2
UUCUGGAUAUGAAGACAAUCAA [hsa-miR-4782-5p]	-38.6
GAAUACGUCUGGUUGAUCC [hsa-miR-6082]	67.8
UGGGAGCCAUGAGGGUCUGUGC [hsa-miR-6827-5p]	-1.65

###

test system: MCF10A; assay: percent viability (nuclei count relative to siNT); higher = more viable cells; conditions: 20 nM; 72 h

sequence-text	percent viability / %
UAGCCUUCAGAUCUUGGUGUUUU [hsa-miR-3614-3p]	51.5
AUAUGUAUAUGUGACUGCUACU [hsa-miR-3924]	32
CAGCAGGAGGUGAGGGGAG [hsa-miR-6165]	101
AGGAUUUCAGAAAUACUGGUGU [hsa-miR-3167]	49.1
CUCUAGAGGGAAGCACUUUCUG [hsa-miR-520c-5p]	82.7
CCACUGCCUAUGCCCCACAG [hsa-miR-6890-3p]	62.1
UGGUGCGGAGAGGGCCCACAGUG [hsa-miR-675-5p]	39
UUGCCUGCCCUCUUCCUCCAG [hsa-miR-6894-3p]	24.2
ACACUGUCCCCUUCUCCCCAG [hsa-miR-6760-3p]	92.8
UGGCAGUUACUUUUGCACCAG [hsa-miR-548au-3p]	5.53
UUUGGUCCCCUUCAACCAGCUA [hsa-miR-133b]	52.5
UGAGUACCGCCAUGUCUGUUGGG [hsa-miR-1911-5p]	108
UCUGUGCUUCACCCCUACCCAG [hsa-miR-6737-3p]	68.8
AUCAUAUGAACCAAACUCUAAU [hsa-miR-5007-3p]	107
CACACACUGCAAUUACUUUUGC [hsa-miR-603]	60.9

###

Each entry below carries its recorded 5+ nucleoli phenotype percent effect.
tested on: MCF10A; assay: 5+ nucleoli phenotype percent effect (relative to siNT 0% and siKIF11 100%); higher = more cells with five or more nucleoli; conditions: 20 nM; 72 h

sequence-text	5+ nucleoli phenotype percent effect / %
AGGCCCUGUCCUCUGCCCCAG [hsa-miR-6775-3p]	11.1
ACUGGCAGAACACUGAAGCAGC [hsa-miR-6868-5p]	-21.7
AACAUUCAUUGUUGUCGGUGGGU [hsa-miR-181d]	12.5
UGGGGCGGAGCUUCCGGAGGCC [hsa-miR-3180-3p]	0.481
GAGCCAGUUGGACAGGAGC [hsa-miR-575]	3.98
AGCUACAGUUACUUUUGCACCA [hsa-miR-548v]	-8.87
UCUCUGGGCCUGUGUCUUAGGC [hsa-miR-330-5p]	-22.3
CUUGGUUCAGGGAGGGUCCCCA [hsa-miR-659-3p]	-6.48
GGCCACUGAGUCAGCACCA [hsa-miR-4252]	5.41
UCUGCAAGUGUCAGAGGCGAGG [hsa-miR-2276]	38.4
ACUGGACUUAGGGUCAGAAGGC [hsa-miR-422a]	-13.7
AGGGACUGCCUUAGGAGAAAGUU [hsa-miR-3199]	42.9
UGUGACUGGUUGACCAGAGGGG [hsa-miR-134]	-26.5
GAGGGUUGGGUGGAGGCUCUCC [hsa-miR-296-3p]	9.3
UUGAGGGGAGAAUGAGGUGGAGA [hsa-miR-6734-5p]	2.95
UCUGUGAGACCAAAGAACUACU [hsa-miR-4677-3p]	-42.7
CUUCUGAUCAAGAUUUGUGGUG [hsa-miR-4762-3p]	-38.7
UGAGGUAGUAGUUUGUACAGUU [hsa-let-7g-5p]	29
UGGAAGGAGGUUGCCGGACGCU [hsa-miR-4533]	-14.3
CGAGGGGUAGAAGAGCACAGGGG [hsa-miR-6738-5p]	26.9
GUUAGGGCCAACAUCUCUUGG [hsa-miR-2909]	5.52
GGGAGCCAGGAAGUAUUGAUGU [hsa-miR-505-5p]	1.85
GUGUUAAUUAAACCUCUAUUUAC [hsa-miR-2053]	3.14
UUGCCUGCCCUCUUCCUCCAG [hsa-miR-6894-3p]	-20.1
GGCCAGCCACCAGGAGGGCUG [hsa-miR-3194-5p]	-36.9
CAAAGAAUUCUCCUUUUGGGCU [hsa-miR-186-5p]	42.9
AAGGGGCUGGGGGAGCACA [hsa-miR-6085]	-17.6
UCUGGGGAUGAGGACAGUGUGU [hsa-miR-4700-5p]	-10.2
UGUCUAUACUCUGUCACUUUAC [hsa-miR-4796-5p]	-19.7
AUUAAGGACAUUUGUGAUUGAU [hsa-miR-4477b]	7
AAAGGUAACUGUGAUUUUUGCU [hsa-miR-548ba]	38.2
CAGGGAGGCGCUCACUCUCUGCU [hsa-miR-4756-5p]	41
AACUAGCUCUGUGGAUCCUGAC [hsa-miR-4661-5p]	-18.4
UGUCUACUACUGGAGACACUGG [hsa-miR-934]	-13.1
ACCAGGGCCAGCAGGGAAUGU [hsa-miR-6837-5p]	-15
CGCCUGCCCAGCCCUCCUGCU [hsa-miR-4763-5p]	-11.3
UAAUGCAUUAAAUUAUUGAAGG [hsa-miR-5700]	47.4
UGUGUACACACGUGCCAGGCGCU [hsa-miR-3177-5p]	61.9
UUUCUAUUUCUCAGUGGGGCUC [hsa-miR-4482-3p]	0.737
UCCUGCGUAGGAUCUGAGGAGU [hsa-miR-3193]	10.1
ACUGGGCAGGGCUGUGGUGAGU [hsa-miR-6860]	-5.42
CGGGGUGGGUGAGGUCGGGC [hsa-miR-4651]	-1.6
